System: PPARg DBDmut IVT, anti-PPARg (DBD mutation: PPARg1 K132A/R137A, NR concentration 270 nM)
Assay: PBM binding z-score (relative to random genomic background probes); higher = stronger binding; sequences stand for … in GC…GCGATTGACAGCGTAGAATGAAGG
Recorded PBM binding z-score values for a group of sequences are listed next.

Sequence String	PBM binding z-score
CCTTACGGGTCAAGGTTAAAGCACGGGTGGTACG	0.275
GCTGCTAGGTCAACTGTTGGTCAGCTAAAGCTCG	-0.586
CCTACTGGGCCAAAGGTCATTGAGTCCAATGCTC	-0.111
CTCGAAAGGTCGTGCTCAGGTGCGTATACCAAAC	0.566
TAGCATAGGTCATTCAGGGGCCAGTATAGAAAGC	0.381
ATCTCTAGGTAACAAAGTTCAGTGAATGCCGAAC	0.837
ATCTGTAGGTAACAAGTTCAGTGAAAGAGAGGAC	0.975
CATGCTAGGTCATGGTCAGCTAATCTACAGTATG	0.712
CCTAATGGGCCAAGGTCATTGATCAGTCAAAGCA	-0.521
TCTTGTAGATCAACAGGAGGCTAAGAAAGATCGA	0.151
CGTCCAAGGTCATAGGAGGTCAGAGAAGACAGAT	0.958
TAGCCGAGGTCAGATCGGGCCAGTATACGCTATA	-0.734

###

System: PPARg:RXRa 90nM:30nM, anti-RXR (NR concentration 90 nM, RXRa partner concentration 30 nM)
Experiment: PBM binding z-score (relative to random genomic background probes); higher = stronger binding; sequences stand for … in GC…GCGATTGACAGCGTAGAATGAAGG
Quick rule: PBM binding z-score of at least 2 means T, below that means F.

Sequence String	Assigned Category
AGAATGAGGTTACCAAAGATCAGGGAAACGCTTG	T
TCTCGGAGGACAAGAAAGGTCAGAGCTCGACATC	T
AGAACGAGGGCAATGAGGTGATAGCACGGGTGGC	F
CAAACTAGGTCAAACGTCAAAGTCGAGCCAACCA	T
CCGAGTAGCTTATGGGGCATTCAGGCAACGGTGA	F
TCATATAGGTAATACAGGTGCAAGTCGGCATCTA	T
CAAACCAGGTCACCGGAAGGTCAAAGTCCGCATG	T
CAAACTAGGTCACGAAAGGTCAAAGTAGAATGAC	T
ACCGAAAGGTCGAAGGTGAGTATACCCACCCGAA	T
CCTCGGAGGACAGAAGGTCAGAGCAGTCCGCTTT	F
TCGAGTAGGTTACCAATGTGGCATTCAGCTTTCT	F
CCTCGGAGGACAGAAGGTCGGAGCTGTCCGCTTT	F
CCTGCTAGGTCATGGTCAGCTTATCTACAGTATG	F
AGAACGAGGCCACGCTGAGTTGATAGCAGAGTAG	F
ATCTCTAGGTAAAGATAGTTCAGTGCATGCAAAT	F
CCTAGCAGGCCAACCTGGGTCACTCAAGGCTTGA	F
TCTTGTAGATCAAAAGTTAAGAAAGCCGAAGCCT	T
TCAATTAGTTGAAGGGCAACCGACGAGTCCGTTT	T
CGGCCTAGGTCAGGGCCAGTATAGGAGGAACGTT	F
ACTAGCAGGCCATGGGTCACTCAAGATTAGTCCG	T
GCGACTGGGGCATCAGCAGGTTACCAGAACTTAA	F
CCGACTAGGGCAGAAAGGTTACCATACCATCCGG	F
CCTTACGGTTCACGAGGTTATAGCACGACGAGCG	F
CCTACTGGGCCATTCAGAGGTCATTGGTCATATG	T
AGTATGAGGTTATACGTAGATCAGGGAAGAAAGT	F
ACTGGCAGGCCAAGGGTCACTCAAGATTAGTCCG	T
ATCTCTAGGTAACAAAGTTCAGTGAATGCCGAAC	T
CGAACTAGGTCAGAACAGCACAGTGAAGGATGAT	T
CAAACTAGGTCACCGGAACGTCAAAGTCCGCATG	T
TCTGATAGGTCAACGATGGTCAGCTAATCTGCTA	T
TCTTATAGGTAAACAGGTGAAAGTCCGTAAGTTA	T
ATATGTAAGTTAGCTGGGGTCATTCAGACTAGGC	F
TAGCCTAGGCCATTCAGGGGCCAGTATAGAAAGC	F
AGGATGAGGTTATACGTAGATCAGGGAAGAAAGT	F
ACAGAAAGGTGAGTGAAGGTAACTCAGCTGGACG	F
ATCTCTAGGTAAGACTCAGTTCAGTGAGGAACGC	F
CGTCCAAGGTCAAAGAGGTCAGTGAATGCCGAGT	T
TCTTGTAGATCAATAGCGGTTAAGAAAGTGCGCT	T
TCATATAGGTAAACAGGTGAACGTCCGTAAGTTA	T
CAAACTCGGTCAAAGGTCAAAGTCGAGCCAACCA	T
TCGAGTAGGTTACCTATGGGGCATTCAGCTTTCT	F
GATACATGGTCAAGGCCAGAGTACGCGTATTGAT	F
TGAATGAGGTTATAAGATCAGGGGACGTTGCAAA	F
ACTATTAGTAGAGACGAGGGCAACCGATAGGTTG	F
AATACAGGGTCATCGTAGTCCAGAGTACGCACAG	T
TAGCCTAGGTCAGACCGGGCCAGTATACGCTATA	F
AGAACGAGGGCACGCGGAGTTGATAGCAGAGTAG	F
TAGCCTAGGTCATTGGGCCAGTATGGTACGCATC	T
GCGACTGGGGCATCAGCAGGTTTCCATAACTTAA	F
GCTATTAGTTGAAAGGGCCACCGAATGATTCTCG	F

###

System: PPARg:RXRa IVT, anti-PPARg (NR concentration 270 nM, RXRa partner concentration 90 nM)
Experiment: PBM binding z-score (relative to random genomic background probes); higher = stronger binding; sequences stand for … in GC…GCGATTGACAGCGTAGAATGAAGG
Consider the following sequences and their measured PBM binding z-score readings.
Readout Name: PBM binding z-score

Sequence String	Endpoint Value
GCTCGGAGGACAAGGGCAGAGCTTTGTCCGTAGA	-0.527
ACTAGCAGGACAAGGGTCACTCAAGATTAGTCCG	3.2
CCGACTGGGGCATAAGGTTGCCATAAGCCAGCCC	2.07
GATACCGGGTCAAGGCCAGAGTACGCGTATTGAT	4.67
TCTTGTAAATCAACAGGAGGTTAAGAAAGATCGA	0.596
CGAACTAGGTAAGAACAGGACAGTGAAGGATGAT	2.52

###

Form field: PBM binding z-score (one value per entry).
Test system: RARa homodimer (NR concentration 270 nM)
Test: PBM binding z-score (relative to random genomic background probes); higher = stronger binding; sequences stand for … in GC…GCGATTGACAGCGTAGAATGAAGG

Sequence String	PBM binding z-score
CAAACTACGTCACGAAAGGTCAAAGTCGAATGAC	2.63
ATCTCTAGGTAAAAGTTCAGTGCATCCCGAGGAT	1.4
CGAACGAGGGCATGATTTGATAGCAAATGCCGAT	-0.507
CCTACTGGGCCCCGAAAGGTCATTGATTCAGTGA	1.3
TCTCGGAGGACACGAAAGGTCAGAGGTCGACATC	1.05
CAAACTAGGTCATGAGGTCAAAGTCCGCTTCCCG	2.05

###

A collection of sequences and their measured PBM binding z-score
System: PPARg:RXRa DBDmut IVT, anti-RXR (DBD mutation: RXRa K156A/R161A, NR concentration 270 nM, RXRa partner concentration 90 nM)
Assay: PBM binding z-score (relative to random genomic background probes); higher = stronger binding; sequences stand for … in GC…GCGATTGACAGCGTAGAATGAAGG

Sequence String	PBM binding z-score
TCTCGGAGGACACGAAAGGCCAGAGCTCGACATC	1.19
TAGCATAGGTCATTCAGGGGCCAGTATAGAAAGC	1.02
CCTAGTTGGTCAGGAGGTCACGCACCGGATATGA	1.74
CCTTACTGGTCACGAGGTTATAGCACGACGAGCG	1.37
ACTAGTTGGTCAGCTGACGTCACACACAATTCGG	0.857
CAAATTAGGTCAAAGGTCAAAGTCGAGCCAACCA	8.74
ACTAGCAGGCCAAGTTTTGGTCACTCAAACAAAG	0.635
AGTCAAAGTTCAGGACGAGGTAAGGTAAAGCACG	-0.019
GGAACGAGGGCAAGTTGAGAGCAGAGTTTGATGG	3.69
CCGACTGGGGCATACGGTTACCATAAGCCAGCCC	2.5
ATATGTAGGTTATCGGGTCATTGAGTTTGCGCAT	7.71
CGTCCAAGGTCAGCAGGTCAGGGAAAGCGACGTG	3.07
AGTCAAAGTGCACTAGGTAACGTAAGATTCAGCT	1.83
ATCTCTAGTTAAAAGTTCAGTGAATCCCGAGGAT	0.0721
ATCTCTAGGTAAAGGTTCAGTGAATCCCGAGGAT	2.8
ACTAGCAGGACAAGTTTGGGTCACTCAAACAAAG	0.129
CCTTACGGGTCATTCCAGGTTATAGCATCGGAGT	2.86
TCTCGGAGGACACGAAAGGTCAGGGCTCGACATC	1.91
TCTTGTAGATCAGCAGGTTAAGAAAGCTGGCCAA	1.47
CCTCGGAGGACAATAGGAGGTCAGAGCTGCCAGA	-0.0175
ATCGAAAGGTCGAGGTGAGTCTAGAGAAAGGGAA	0.536
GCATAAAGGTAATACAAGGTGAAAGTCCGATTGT	0.839
CCTCACGGGTCACTCCAGGTTATAGCATCGGAGT	0.962
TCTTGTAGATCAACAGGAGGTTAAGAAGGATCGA	1.57
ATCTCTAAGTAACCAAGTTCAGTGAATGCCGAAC	-0.304
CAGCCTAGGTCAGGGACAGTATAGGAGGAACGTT	1.29
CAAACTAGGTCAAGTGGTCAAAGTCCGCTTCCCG	8.23
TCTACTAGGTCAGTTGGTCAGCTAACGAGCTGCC	6.44
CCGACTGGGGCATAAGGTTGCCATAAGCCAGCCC	2.51
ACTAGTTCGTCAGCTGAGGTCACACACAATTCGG	0.735
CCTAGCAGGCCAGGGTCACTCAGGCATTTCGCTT	-0.00567
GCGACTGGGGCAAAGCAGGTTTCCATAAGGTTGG	4.2
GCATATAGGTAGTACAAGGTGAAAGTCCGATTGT	0.709
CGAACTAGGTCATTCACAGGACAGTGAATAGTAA	8.25
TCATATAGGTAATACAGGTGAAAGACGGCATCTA	4.17
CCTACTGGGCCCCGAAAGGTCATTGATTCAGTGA	0.503
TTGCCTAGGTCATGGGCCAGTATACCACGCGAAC	1.44
AGAATGAAGTTATACGTAGATCAGGGAAGAAAGT	-0.998
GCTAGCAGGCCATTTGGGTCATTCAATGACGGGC	2.06
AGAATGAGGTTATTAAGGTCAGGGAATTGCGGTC	4.18
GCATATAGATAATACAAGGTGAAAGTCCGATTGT	0.0768
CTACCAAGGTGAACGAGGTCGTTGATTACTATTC	2.17
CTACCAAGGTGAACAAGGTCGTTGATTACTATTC	2.26
TTAATGAGGTTATAAGATCAGGGAACGTTGCAAA	2.84
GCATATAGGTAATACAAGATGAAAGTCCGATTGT	4.04
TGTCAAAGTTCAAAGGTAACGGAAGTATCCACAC	0.604
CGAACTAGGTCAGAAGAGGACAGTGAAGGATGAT	7.13
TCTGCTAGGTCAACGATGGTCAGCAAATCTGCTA	3.85
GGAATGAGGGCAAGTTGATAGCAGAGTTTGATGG	4.98
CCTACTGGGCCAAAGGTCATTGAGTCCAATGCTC	5.06
CGTCCAAGGTCAGCGAGGTCAGTGAATGCCGAGT	3.43
